# tested-on: hK1 (human tissue kallikrein 1), recombinant (human, UniProt P06870 25-262)
# procedure-summary: cell-based or functional assay
measured-parameter: IC50 (nM), inhibition of hK1 hydrolysis of Pro-Phe-Arg-AMC
Numbers only here, please. The scale is nM.

Field: example entries. Status: answers known.
M0114-G06 (Fab, V domains shown) VH: EVQLLESGGGLVQPGGSLRLSCAASGFTFSYYEMEWVRQAPGKGLEWVSSIRPSGGRTVYADSVKGRFTISRDNSKNTLYLQMNSLRAEDTAVYYCAKGRSNYYGSGSYSPKYFQHWGQGTLVTVSS VL: DIQMTQSPSSLSASVGDRVTITCRASQGISSWLAWYQQRPERAPKSLIYAASSLERGVPSRFRGSGSGTDFTLTISSLQPEDFGTYYCQQYHNFPLTFGGGTRVEINR	1.2
M0137-E01 (Fab, V domains shown, also called M137-E01) VH: EVQLLESGGGLVQPGGSLRLSCAASGFTFSRYSMTWVRQAPGKGLEWVSSIYPSGGKTTYADSVKGRFTISRDNSKNTLYLQMNSLRAEDTAVYYCASMVAPYYYDSSGYPPAEYFQHWGQGTLVTVSS VL: AQSELTQPPSASGTPGQRVTISCSGTNSNIGSNSVFWYQQLSGTAAPKVLILRNSQRPSGVSDRFSGSKSGTSASLAISGLRSEDEADYYCATWDDSLRSPVFGGGTKLTVLG	0.4

IC50 (nM), inhibition of hK1 hydrolysis of Pro-Phe-Arg-AMC reading for M0097-F03 (Fab, V domains shown) VH: EVQLLESGGGLVQPGGSLRLSCAASGFTFSNYLMYWVRQAPGKGLEWVSSIRPSGGNTLYADSVKGRFTISRDNSKNTLYLQMNSLRAEDTAVYYCRRGILTGYYWGYYYYMDVWGKGTTVTVSS VL: DIQMTQSPATLSVSPGGRATLSCRASQSVRKNVAWYQQKPGQPPRLLIYGASTRATGVPARFSGSGSGTEFTLTISRMQPEDFVVYHCQQYSSWPAFGQGTMVEINR : 1.1
